# system under test: Neutral cholesterol ester hydrolase 1 (NCEH1) (Homo sapiens)
# Construct: endogenous full-length enzyme in live PC3 cells
# Sequence (Q6PIU2 whole entry): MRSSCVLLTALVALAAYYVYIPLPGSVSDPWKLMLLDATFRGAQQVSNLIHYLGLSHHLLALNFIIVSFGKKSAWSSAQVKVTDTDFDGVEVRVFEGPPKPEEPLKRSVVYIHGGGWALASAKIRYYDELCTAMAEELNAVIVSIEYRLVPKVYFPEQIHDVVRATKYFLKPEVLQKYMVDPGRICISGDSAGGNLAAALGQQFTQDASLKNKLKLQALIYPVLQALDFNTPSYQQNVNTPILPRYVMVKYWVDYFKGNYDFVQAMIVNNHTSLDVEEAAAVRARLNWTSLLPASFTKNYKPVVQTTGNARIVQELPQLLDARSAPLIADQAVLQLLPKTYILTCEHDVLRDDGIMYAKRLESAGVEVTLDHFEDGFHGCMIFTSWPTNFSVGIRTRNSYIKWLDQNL
# protocol summary: competitive activity-dependent proximity ligation (FP-Bio probe) in live cells; gel-based ABPP in SKOV3
pIC50: −log10 of the molar value.
measured attribute: pIC50

[[record]]
compound_string = "CC(C)c1ccccc1OC(=O)NCCc1ccc2ccccc2c1"
measured_attribute = "pIC50"
reported_result = 8.22

